- experimental-target: T1, Lsb1, P53281
- T1 sequence (P53281 45-122, looked up): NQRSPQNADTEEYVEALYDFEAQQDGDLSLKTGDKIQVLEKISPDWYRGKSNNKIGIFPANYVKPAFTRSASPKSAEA
- method: SPOT array
- measurement-setup: median of control spots 388
# SPOT intensity listing for each entry below
observation-type: SPOT intensity

| binder | observation-type | value |
| --- | --- | --- |
| HPRFVSPRIPSRIVK | SPOT intensity | 379 |
| HAPPLPPTAPPPPSL | SPOT intensity | 0 |
| PPIPIVPSSPAPPLP | SPOT intensity | 0 |
| ERPKRRAPPPVPKKP | SPOT intensity | 326 |
| PSRRAPLQLPQLVNK | SPOT intensity | 313 |
| PSPSSSPPPIPKTAN | SPOT intensity | 0 |
| MPAPPPPPPPPPGAF | SPOT intensity | 0 |
